System: SK-OV-3 ovarian
PROTOCOL SUMMARY: NCI tumour cell line growth inhibition, 48 h
MEASURED PROPERTY: TGI

Examples from the recorded data:
# COMPOUND, MEASURED PROPERTY, REPORTED RESULT
rows = [
    ("CC(C)(C)c1cc(-c2cc(C(C)(C)C)n(-c3ccccc3)n2)nn1-c1ccccc1", "TGI", "> 100 µM"),
    ("CC(=O)OC[C@]1(O)CC[C@@]23CC1C[C@@H]2CCC1C(C)(C)CCC[C@@]13C (stereo partly drawn)", "TGI", "28.9 µM"),
    ("N#CC(C(=O)/C(=N/N)C(C#N)c1ccccc1)c1ccccc1 (stereo not drawn)", "TGI", "> 100 µM"),
    ("Cn1c(=O)nc2n(-c3cccc(Br)c3)c3ccccc3nc-2c1=O", "TGI", "50.5 µM"),
    ("O=C1SS(=O)c2ccccc21 (stereo not drawn)", "TGI", "> 100 µM"),
]

Please report the recorded TGI for `COc1cc2c3c(n(CCCN)c(=O)c2cc1OC)-c1cc2c(cc1/C3=C\CCN)OCO2` .
44.2 µM

Please report the recorded TGI for `N#CCCCC[N+]12CN3CN(CN(C3)C1)C2` .
> 100 µM

Please report the recorded TGI for C=CC(c1ccccc1)[C@@]1(OC(C)=O)C(=O)C(=O)OC1C1COC(C)(C)O1 (stereo partly drawn) .
32.3 µM

Please report the recorded TGI for `N#Cc1c(O)c(N=Nc2ccccc2F)c(=O)n2c1[nH]c1ccccc12` .
> 100 µM

Please report the recorded TGI for `CN(C)c1ccc([O][Bi]([Cl])[Cl])cc1` .
> 100 µM

* * *

Test system: 786-0 renal
PROTOCOL SUMMARY: NCI tumour cell line growth inhibition, 48 h
MEASURED PROPERTY: TGI

# COMPOUND, TGI
records = [
    ("CS/C1=C(\\c2ccc(C)cc2)N(c2ccccc2)C(=O)C(=O)N(c2ccccc2)/C(c2ccc(C)cc2)=C(/SC)SS1", "> 100 µM"),
    ("O=C(/C=C/c1cccnc1)NCCCCC1CCCN(C(=O)c2ccccc2)C1 (stereo unspecified)", "> 100 µM"),
    ("COc1c(OC)c(OC)c2c(c1OC)c(=O)c1ccccc1n2C", "> 100 µM"),
    ("Cc1cc2nc(CCC(=O)O)c(=O)[nH]c2cc1C", "> 100 µM"),
]

Please report the recorded TGI for COc1cc(C2c3cc(O)c(OC)cc3C3OCC2C3CO)ccc1O (stereo unspecified) .
> 100 µM

Please report the recorded TGI for `COc1ccc(/C=C/C(=O)c2ccc(SC)cc2)cc1OC` .
26.6 µM

Please report the recorded TGI for `CN(C)c1ccc([O][Bi]([Cl])[Cl])cc1` .
> 100 µM

Please report the recorded TGI for `COC(=O)c1sc2ncc3c(c2c1N)CCCCCC3` .
> 100 µM

Please report the recorded TGI for `COc1cc(NC(C)=O)ccc1C(=O)N/N=C/c1ccc(Cl)cc1Cl` .
64.4 µM

Please report the recorded TGI for `N=C(N)N1CCC(N2CCOCC2)CC1` .
> 100 µM

Please report the recorded TGI for `c1ccc2c(c1)nc1n2CCCn2ccnc2-1` .
> 100 µM

Please report the recorded TGI for `O=c1[nH]/c(=C/c2ccc(OCc3ccccc3)cn2)c(=O)[nH]/c1=C/c1ccc([N+](=O)[O-])cc1` .
> 100 µM

Please report the recorded TGI for `CC(=O)[CH-]C(=O)c1ccccc1.CC(=O)[CH-]C(=O)c1ccccc1.[Eu+3].[OH-].[OH3+]` .
> 100 µM
